# Tested on: Fibroblast
# experimentalDetails: Incucyte cell viability with human fibroblast; also: unitless GR value; below 1 slowed growth and below 0 cell loss
# Format: toxicity, cell-based
# statedConditions: 6 h, 10 µM, compound concentration 10 uM, replicate number 2
measuredMetric: Growth Rate

>>> df
                                   compound  testsystem  measuredmetric  experimentalvalue
0  COc1cc(N2CCN(C)CC2)ccc1Nc1ncc2c(n1)N(C)c1ccccc1C(=O)N2CC(F)(F)F  Fibroblast     Growth Rate               0.47
1            O=c1cccc2n1C[C@@H]1CNC[C@H]2C1  Fibroblast     Growth Rate               -0.4
2  C[C@@H]1CC(=O)N(C2CC2)N=C1c1ccc(NC(=O)N2Cc3ccncc3C2)cc1  Fibroblast     Growth Rate              -0.07
3  COc1ccccc1Nc1nc(-c2nn(Cc3c(F)cc(OCCCO)cc3F)c3ccccc23)ncc1OC  Fibroblast     Growth Rate               0.53
4  CC(C)n1cc(-c2ccc(N3CCN(C)CC3)c(NC(=O)c3ccc(-c4ccncc4)o3)c2)cn1  Fibroblast     Growth Rate               0.11

Quick check: Growth Rate of Fc1ccc(-c2c3cccc(C(F)(F)F)c3nn2Cc2ccc(F)cc2Cl)cc1 ? 0.35

Quick check: Growth Rate of Cc1cccc(F)c1C(=O)Nc1cnc(-c2cc3c(cc2Cl)OC(F)(F)O3)cn1 ? -0.57

Quick check: Growth Rate of COC1(C#Cc2ccc(Cl)c(-c3ncc4c(n3)-c3sc(NC(C)=O)nc3CC4)c2)CCN(C)CC1 ? -0.27

Quick check: Growth Rate of Cc1cn([C@@H](C)CC#N)c(=O)c2cc(Cn3nc(C(F)F)cc3Cl)nn12 ? 0.71

Quick check: Growth Rate of C=C(F)C(=O)N1CCN(c2nc(OC[C@@H]3CCCN3C)nc3c2CCN(c2cccc4cccc(Cl)c24)C3)C[C@@H]1CC#N ? -0.86

Quick check: Growth Rate of CCCCc1oc2ccccc2c1C(=O)c1cc(I)c(OCCN(CC)CC)c(I)c1.Cl [AMIODARONE HYDROCHLORIDE] ? -0.16

Quick check: Growth Rate of CCC(=O)Nc1cc(Nc2cc(NC3CC3)n3ncc(C#N)c3n2)ccc1C ? 0.41

Quick check: Growth Rate of O=C(NC[C@@H]1[C@H]2CN(C(=O)OCc3cc(C(F)(F)F)cc(C(F)(F)F)c3)C[C@@H]12)c1ccc2[nH]nnc2c1 ? -0.08

Quick check: Growth Rate of COc1cc(C(=O)N2CC[C@@H](O)[C@@H](N)C2)cc2nc(-c3cc4ccccc4n3CC3CC3)n(C)c12.Cl ? -0.02

Quick check: Growth Rate of COc1cc(C(=O)O)ncc1C#Cc1ccccc1NS(=O)(=O)c1cccc2c(N(C)C)ccnc12 ? 0.44

Quick check: Growth Rate of Cc1cc(-c2cnc(N)c3c(-c4ccc5scnc5c4)csc23)n(C)n1 ? 0.31

Quick check: Growth Rate of Cc1cc(-c2nncc3c(C(C)(C)C)c(OCc4ncnn4C)nn23)no1 ? -0.97

Quick check: Growth Rate of CS(=O)(=O)CCNCc1ccc(-c2ccc3ncnc(Nc4ccc(OCc5cccc(F)c5)c(Cl)c4)c3c2)o1 ? 0.69

Quick check: Growth Rate of O=C(O)C[C@H]1CC[C@H](c2ccc(NC(=O)c3nnc(Nc4ccc(F)c(F)c4)o3)cc2)CC1 ? 0.97

Quick check: Growth Rate of Cc1nc(-c2ccc(C(F)(F)F)cc2)sc1C(=O)NCc1ccc(OC(C)(C)C(=O)O)cc1 ? 0.99

Quick check: Growth Rate of CN1CCN(c2ccc(/C=C(\C#N)c3ccccc3Br)cc2)CC1.Cl.Cl ? 0.09

Quick check: Growth Rate of C[C@@H]1OCC2(CCN(c3cnc(Sc4ccnc(N)c4Cl)c(N)n3)CC2)[C@@H]1N ? -0.69

Quick check: Growth Rate of Cc1cc2c(-c3ccco3)cnc(N[C@@H]3CCN(C)C[C@H]3C(=O)NC3CCCCC3)c2[nH]c1=O ? 0

Quick check: Growth Rate of CCN(CC)C/C=C/C(=O)Nc1cc2c(Nc3ccc(F)c(Cl)c3)ncnc2cc1OCC1CC1 ? -0.01

Quick check: Growth Rate of Oc1cc2c(cc1O)CN(C(=S)NCCc1ccc(Cl)cc1)CCC2 [CAPSAZEPINE] ? -0.98

Sourced from ChEMBL document CHEMBL5303304
